target: T1, rhesus serum albumin (rhesus, UniProt Q28522 17-600); assay: SPR, single cycle kinetics, pH 5.5
T1 construct: also called RhSA
pKd: −log10 of the molar value.
Kindly return 1 if reported pKd is no lower than 7; return -1 if it is lower.

Could you please find out whether Rh34 sdAb (VHH, also called Rh34 VHH) VHH: QVKLEESGGGLVQAGGSLRLSCAASGRTISLYAVGWFRRAPGKEREFVAAISWTDSSTYYADSVKGRFTISRDNAKNTVYLGMNSLNPEDTAVYYCAADVSIRGLQKYEYDYWGQGTQVTVSS has pKd that meets 7 or exceeds it? -1

Textbook exercise: given the entry R28 sdAb (VHH, also called R28 VHH) VHH: QVQLVESGGGLVQAGGSLRLSCVASGRTFIAYAMGWFRQAPGKEREFVAAITNFAGGTTYYADSVKGRFTISRDNAKTTVYLQMNSLKPEDTALYYCAADRSAQTMRQVRPVLPYWGQGTQVTVSS , state whether its pKd is greater than or equal to 7. 1

Check the entry R11-H6 (VHH) VHH: QVQLVESGGGLVQPGGSLRLSCAGPGFLLRSNTMGWYRQAPGKERELVAFIRPSGLTNYNDAVQGRFTISRDNAKNTVYLQMNSLRAEDTAVYYCHTRPPFQRDSWGQGTLVTVSS : does pKd equal or exceed 7? -1

Determine whether measured pKd meets or exceeds 7 for Rh34-H3 (VHH) VHH: QVQLVESGGGLVQPGGSLRLSCAASGRTISLYAVGWFRQAPGKEREFVAAISWTDSSTYYADSVKGRFTISRDNSKNTLYLQMNSLRAEDTAVYYCAADVSIRGLQKYEYDYWGQGTLVTVSS -1

Is it the case that H18-H3 (VHH) VHH: QVQLVESGGGLVQPGGSLRLSCAASGSIESINRMAWYRQAPGKQREFVARISKGGSTNYPDSVKGRFTISRDNSKNTLYLQMNSLRAEDTAVYYCAAGPVWEQFWGQGTLVTVSS has pKd reaching or exceeding 7? 1

Hello, I need to know if M79-H2 (VHH) VHH: EVQLVESGGGLVQPGGSLRLSCAASGSTFSSSSVGWYRQAPGKGLELVSAITSGGSTNTADSVKGRFTISRDNSKNTLYLQMNSLRAEDTAVYYCNVAGRNWVPISRYSPGPYWGQGTLVTVSS has measured pKd not below 7. Thanks! 1
